# System: A. baumannii strain 98-37-09
# assay-procedure: Cellular accumulation of minocycline (HPLC, triple-quadrupole MS)
# Assay type: cell-based, Acinetobacter baumannii
# condition-notes: human serum with 0.5 μg mL^−1 minocycline plus test compound (0.5×MEC, 1×MEC), 48 hours
test-readout: Minocylcine Per Cell (femtomoles cell^−1)

compound: O=C(N/N=C/c1ccc2c(c1)OCO2)c1ccccc1O
target-entity: A. baumannii strain 98-37-09
result: 3.39E−05 femtomoles cell^−1

compound: Cc1cccc(N(CC(=O)Nc2ccc(Cc3ccncc3)cc2)S(=O)(=O)c2ccccc2)c1
target-entity: A. baumannii strain 98-37-09
result: 5.46E−04 femtomoles cell^−1

compound: CC(C)CCOC(=O)C(NS(=O)(=O)c1ccc2c(c1)CCN2S(C)(=O)=O)c1ccccc1 (stereo not drawn)
target-entity: A. baumannii strain 98-37-09
result: 2.48E−07 femtomoles cell^−1
